Origin of the recorded values: patent US20110002929A1

Biological target: T1, human RANK-L (human, UniProt O14788 140-317, limits assumed)
T1 construct: Soluble protein, used coated, biotinylated or labelled in ELISA, AlphaScreen, FMAT and Biacore; also called hRANK-L; soluble human RANK-L
T1 sequence (looked up): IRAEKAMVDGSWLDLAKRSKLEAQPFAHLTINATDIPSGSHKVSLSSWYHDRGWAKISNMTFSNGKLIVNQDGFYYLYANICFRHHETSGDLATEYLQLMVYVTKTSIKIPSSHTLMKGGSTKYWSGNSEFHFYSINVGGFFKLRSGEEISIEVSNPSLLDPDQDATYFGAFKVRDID
Test: SPR Biacore 3000, hRANK-L on CM5, 100 nM Nanobody
Metric: koff (s⁻¹)
I only need the number, in s⁻¹, no unit after it.

Dear colleague, please send me the reported koff for RANKL13 (VHH, not shown: small tags and cut ends) VHH: EVQLVESGGGLVQAGGSLRLSCAASGRTFRSYPMGWFRQAPGKEREFVASITGSGGSTYYADSVKGRFTISRDNAKNTVYLQMNSLRPEDTAVYSCAAYIRPDTYLSRDYRKYDYWGQGTQVTVSS when you can.
0.00025

Quick one: give measured koff for RANKL18 (VHH, not shown: small tags and cut ends) VHH: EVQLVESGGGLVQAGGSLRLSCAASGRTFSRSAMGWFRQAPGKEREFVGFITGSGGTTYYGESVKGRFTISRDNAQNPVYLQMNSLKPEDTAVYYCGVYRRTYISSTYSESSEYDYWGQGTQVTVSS
5.6e-05

Retrieve koff measured for RANKL18hum6 (VHH) VHH: EVQLVESGGGLVQPGGSLRLSCAASGRTFSRSAMGWFRQAPGKGREFVGFITGSGGTTYYADSVKGRFTISRDNAQNPVYLQMNSLRPEDTAVYYCAVYRRTYISSTYSESSEYDYWGQGTLVTVSS and print it.
6.72e-05

Quickly give me recorded koff for RANKL13hum5 (VHH) VHH: EVQLVESGGGLVQPGGSLRLSCAASGFTFSSYPMGWFRQAPGKGREFVSSITGSGGSTYYADSVKGRFTISRDNAKNTLYLQMNSLRPEDTAVYYCAAYIRPDTYLSRDYRKYDYWGQGTLVTVSS
0.00021
